system: Escherichia coli; assay: Antimicrobial activity against Escherichia coli ATCC […] after 24 hrs by broth dilution method; type: functional
Measured attribute: MIC (µg/mL)

[
  {
    "Smi": "O=C(N/N=C/c1ccc(Cl)cc1)c1cc(Cl)c(Cl)[nH]1",
    "Measured result": 3.12
  }
]

(1) O=C(N/N=C/c1ccccc1O)c1cc(Cl)c(Cl)[nH]1
(2) O=C(N/N=C/c1ccccc1O)c1cc(Cl)c[nH]1
Request: From the recorded data, which exceeds the other in MIC: 1 or 2 ? // output: label of the selected item
Response: 2
